- Test system: DIGSA
- experimentalProtocol: Post-emergence herbicidal action against DIGSA
- Assay type: in vivo, Digitaria sanguinalis
- measurementParameters: 80 g/ha, visual assessment about 3 weeks after treatment vs untreated controls
Listed here: items and their measured Post-emergence action against DIGSA in %.
Value expressed in %; do not type the unit.

Known Post-emergence action against DIGSA in % results, listed for orientation:
Give its Post-emergence action against DIGSA in % value. Item: CC#Cc1cc(F)c(C2=C(O)C3(CCC(COCCC)C3)NC2=O)c(OC)c1 (stereo not shown) [Example I-56] 90

Same thing, different compound: C#Cc1cc(Cl)c(C2=C(OC(=O)OCC)C3(CCC(COC)C3)NC2=O)c(OC)c1 (stereo not shown) [Example P-02] 100

Same thing, different compound: CC#Cc1cc(C)c(C2=C(OC(=O)C(C)C)C3(CCC(COCC)C3)NC2=O)c(Br)c1 (stereo not shown) [Example P-36] 90

Consider the record given below.
Give its Post-emergence action against DIGSA in % value. Item: C=CCOCC1CCC2(C1)NC(=O)C(c1c(C)cc(C#CC)cc1Br)=C2OC(=O)OCC (stereo not shown) [Example P-85] 90

The reported measurements were obtained from patent US20220386606A1.
